Molecular target: Proteasome subunit beta type-1 (Homo sapiens, UniProt P20618)
Sequence (P20618 whole entry): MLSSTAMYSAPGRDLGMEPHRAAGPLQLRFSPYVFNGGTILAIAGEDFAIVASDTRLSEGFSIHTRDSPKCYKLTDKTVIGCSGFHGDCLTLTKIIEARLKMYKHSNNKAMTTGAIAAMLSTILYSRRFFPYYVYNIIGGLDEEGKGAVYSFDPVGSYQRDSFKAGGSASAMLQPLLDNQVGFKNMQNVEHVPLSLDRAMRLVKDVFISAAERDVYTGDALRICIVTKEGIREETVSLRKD
Experiment: Inhibition of human 20S proteasome post-glutamyl peptide hydrolyzing activity using Z-Leu-Leu-Glu-AMC as substrate measured over 10 mins by fluorescence assay
property measured: log10 Ki (log10 of the value in µM)
Values are log10 of Ki in µM.

A selection of reference data follows.
Query: Dear colleague, please send me the reported log10 Ki for `CC(C)C[C@H](NC(=O)Cn1ccc2c(c1=O)CCCN2C)B(O)O` when you can.
Response: 0.59

Query: Dear colleague, please send me the reported log10 Ki for `CC(C)C[C@H](NC(=O)Cn1ccc(N2CCCCC2)cc1=O)B(O)O` when you can.
Response: 0.15

Query: Dear colleague, please send me the reported log10 Ki for `CC(C)C[C@H](NC(=O)Cn1ccc(Nc2ccccc2)cc1=O)B(O)O` when you can.
Response: 0.71

For each of the compounds below, state log10 Ki.
1. CCN(CC)c1ccn(CC(=O)N[C@@H](CC(C)C)B(O)O)c(=O)c1
2. CC(C)C[C@H](NC(=O)Cn1ccc(N2CCOCC2)cc1=O)B(O)O

Response:
[0.65, -0.28]

For each of the compounds below, state log10 Ki.
1. CC(C)C[C@H](NC(=O)Cn1ccccc1=O)B(O)O
2. CC(C)C[C@H](NC(=O)[C@H](C)n1ccc2ncccc2c1=O)B(O)O

Response:
[0.14, 1.13]
